- SYSTEM_TESTED: human proteinase 3 (Homo sapiens)
- Construct: purchased Elastin Products Company, USA
- Sequence (P24158 28-248): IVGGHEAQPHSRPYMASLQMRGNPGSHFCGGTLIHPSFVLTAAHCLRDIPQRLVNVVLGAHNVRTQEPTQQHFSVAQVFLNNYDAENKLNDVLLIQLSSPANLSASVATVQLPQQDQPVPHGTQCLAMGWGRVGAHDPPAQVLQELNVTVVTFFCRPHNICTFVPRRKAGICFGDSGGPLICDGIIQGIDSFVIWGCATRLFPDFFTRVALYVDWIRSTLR
- ASSAY_PROTOCOL: Inhibition of human proteinase 3 (substrate Boc-Ala-Ala-Nva-SBzl)
- Assay type: biochemical
- CONDITION_SUMMARY: substrate Boc-Ala-Ala-Nva-SBzl 1 mM, enzyme 10 nM, 37° C., pH7.4; read-out: Human proteinase 3 (hPr3) IC50
Where a SMILES comes first, the peptide text is derived from it. [ ]: non-standard residue; d: D form. Gly(octyl) = CCCCCCCC[C@H](N)C(=O)O; hSer = N[C@@H](CCO)C(=O)O
RESULT_TYPE: IC50 (µM)

>>> result("CCCCCCCC[C@@H]1NC(=O)[C@H](CCCCN)NC(=O)[C@@H](C(C)C)NC(=O)[C@H]([C@@H](C)O)NC(=O)[C@H](CCCCN)NC(=O)[C@H](CCC(N)=O)NC(=O)[C@@H]2CCCN2C(=O)[C@@H]2CCCN2C(=O)[C@H]([C@@H](C)CC)NC(=O)[C@H](CO)NC(=O)[C@H](C)NC(=O)[C@H]([C@@H](C)O)NC(=O)[C@H](CCC(=O)O)NC1=O [Example 22] (cyclo([Gly(octyl)]ETASIPPQKT[dV]K))")
70.4
>>> result("CCCCCCCC[C@@H]1NC(=O)[C@@H]2CCCN2C(=O)[C@H]2CCCN2C(=O)[C@H](CCOC)NC(=O)[C@H](CCCCN)NC(=O)[C@H](CCC(N)=O)NC(=O)[C@@H]2CCCN2C(=O)[C@@H]2CCCN2C(=O)[C@H]([C@@H](C)CC)NC(=O)[C@H](CO)NC(=O)[C@H](C)NC(=O)[C@H]([C@@H](C)O)NC(=O)[C@H](CCC(=O)O)NC1=O [Example 1] (cyclo([Gly(octyl)]ETASIPPQK[hSer](Me)[dP]P))")
0.72
